Test system: L1210 leukemia ip in BDF1 mice, survival T/C
Protocol: NCI In Vivo Anticancer Drug Screen. Data for tumor model L1210 Leukemia (intraperitoneal) in B6D2F1 (BDF1) mice
Condition Label: endpoint: mean survival time; dose: 80.0 mg/kg/injection; schedule: Q04DX003 (ip); vehicle: Klucel (hydroxypropylcellulose) (HPC); higher = longer survival
Inconclusive results and toxic doses are left out.
Please go through the items and note down their T/C.

Give T/C (L1210 leukemia ip in BDF1 mice, survival T/C) of the following compound: `O=C(CCl)c1ccc(Oc2ccccc2)cc1`
105 % of control

Queued: `COc1cc(C(=O)O)c2c(c1C)OC(=O)c1c(C)cc(O)c(C=O)c1O2`
107 % of control

Next entry: `O=C(CCN1CC1)OCCc1ccccc1`
101 % of control

Now give it for `O=C(O)/C=C/c1ccccn1` too.
94 % of control

Another compound: `CC(C)(C)c1ccc(SC(=O)NCCCl)cc1`
90 % of control

* * *

System: L1210 leukemia ip in BDF1 mice, survival T/C
Protocol: NCI In Vivo Anticancer Drug Screen. Data for tumor model L1210 Leukemia (intraperitoneal) in B6D2F1 (BDF1) mice
Condition Label: endpoint: mean survival time; dose: 200.0 mg/kg/injection; schedule: Q01DX001 (ip); vehicle: Klucel (hydroxypropylcellulose) (HPC); higher = longer survival
Inconclusive results and toxic doses are left out.
Task for the reader: assign each of the following molecules its reported T/C.

Fill blank: measured T/C of the molecule `CN(C)CCNCC(=O)CC(O)(C(F)(F)F)C(F)(F)F` is ____.
109 % of control

Request: COC1CCC(NC(=O)NCCCl)CC1 (configuration not stated)
102 % of control

Subsequent entry: `CCOC(=O)C1(c2ccccc2)CCN(CCC(=O)c2ccc(F)cc2)CC1`
95 % of control

Further, for `Cc1nc(N)nc(Cl)c1CCCc1ccccc1` ?
102 % of control

Record: `C/C(=N/NC(=O)c1ccccc1)C(=O)c1ccccc1`
97 % of control

Then this molecule: `CC1=CCc2c(NS(=O)(=O)N(C)C)ccc(NS(=O)(=O)N(C)C)c2C1`
97 % of control

# repeat for `CCOC(=O)CC(=O)c1ccc(OC)cc1`
106 % of control

* * *

Tested on: L1210 leukemia ip in BDF1 mice, survival T/C
Protocol: NCI In Vivo Anticancer Drug Screen. Data for tumor model L1210 Leukemia (intraperitoneal) in B6D2F1 (BDF1) mice
Condition Label: endpoint: mean survival time; dose: 25.0 mg/kg/injection; schedule: Q01DX009 (ip); vehicle: saline with Tween-80; higher = longer survival
Inconclusive results and toxic doses are left out.
Endpoint: T/C

I have this compound here, O=C1C=CC(=O)C2C3CC(C4OC34)C12 (stereo unspecified) , and I need its recorded T/C.
102 % of control

How about `[O-][n+]1c(Cl)cc(Cl)c2ccccc21` ?
95 % of control

Now consider `Oc1ccc(Cl)cc1Br` and answer again.
100 % of control

Same question for CCCCCCCCCCCC(C)NCc1ccccc1 (stereo unspecified) please.
97 % of control

Now this one: `O=C(CBr)CC(=O)Nc1ccccc1`
97 % of control

Next entry: `C=Cc1c(C)c(O)cc2c1-c1ccc(O)c(C)c1CC2`
98 % of control

* * *

System: L1210 leukemia ip in BDF1 mice, survival T/C
Protocol: NCI In Vivo Anticancer Drug Screen. Data for tumor model L1210 Leukemia (intraperitoneal) in B6D2F1 (BDF1) mice
Condition Label: endpoint: mean survival time; dose: 400.0 mg/kg/injection; schedule: Q04DX002 (ip); vehicle: saline with Tween-80; higher = longer survival
Toxic doses and inconclusive results are not listed.
Endpoint: T/C

Item under review: C1CCC2OCOCC2C1 (stereo not given) . Reported T/C?
93 % of control

Follow-up item: `O=C1C=CC(=O)C2=C1C1c3ccccc3C2c2ccccc21`
114 % of control

Now give it for CCOC(=O)C1OC12CCC(C(C)(C)C)CC2 (stereo not given) too.
93 % of control

Now try CCC(C)COS(=O)(=O)c1ccc(C)cc1 (stereo not given) .
100 % of control

Okay, and `CC(C)=CCC/C(C)=C\COc1cccc(C)c1` ?
96 % of control

* * *

For each entry below, report its T/C value.
Test system: L1210 leukemia ip in BDF1 mice, survival T/C
Protocol: NCI In Vivo Anticancer Drug Screen. Data for tumor model L1210 Leukemia (intraperitoneal) in B6D2F1 (BDF1) mice
Condition Label: endpoint: mean survival time; dose: 150.0 mg/kg/injection; schedule: Q01DX009 (ip); vehicle: Klucel (hydroxypropylcellulose) (HPC); higher = longer survival
Toxic doses and inconclusive results are not listed.

I have this compound here, COc1ccc(C(N)C(=O)O)cc1 (centres undefined) , and I need its recorded T/C.
113 % of control

Also CCC1C(=O)C=C(C)OC1=O (centres undefined) ?
101 % of control

Same thing, different compound: `O=[As](O)(O)c1ccccc1N=Nc1ccccc1`
87 % of control

Proceed to `O=C(Nc1cc(F)ccc1F)Oc1cccnc1`
107 % of control

* * *

Test system: L1210 leukemia ip in BDF1 mice, survival T/C
Protocol: NCI In Vivo Anticancer Drug Screen. Data for tumor model L1210 Leukemia (intraperitoneal) in B6D2F1 (BDF1) mice
Condition Label: endpoint: mean survival time; dose: 400.0 mg/kg/injection; schedule: Q01DX001 (ip); vehicle: Klucel (hydroxypropylcellulose) (HPC); higher = longer survival
Description: The antitumor activity of compounds was measured in mice bearing transplantable tumors. Survival or tumor size were measured and the results are expressed as the measurement made in the treated group (T) divided by the measurement made in the vehicle treated control group (C). The tumor model used in this assay is L1210 Leukemia (intraperitoneal) in B6D2F1 (BDF1) mice
Toxic doses and inconclusive results are not listed.
Record form. Attribute: T/C. Fill in for each entry.

I'd like to know its T/C. The compound in question is `O=C(/C=C/C(=O)Oc1ccc(Cl)cc1)Oc1ccc(Cl)cc1`
99 % of control

Then what about the compound CCOC(=O)C(CCC#N)C1=NC(C)(C)CC(C)O1 (stereo unspecified) ?
103 % of control

// repeat for `CCOC(=O)NCc1cccc2ccc(Cl)cc12` and report
86 % of control

Query `CC[CH2][Sn]([CH2]C)([c]1ccccc1)[c]1ccccc1` next
101 % of control

For `O=C(Nc1cccc(O)c1)Nc1cc([N+](=O)[O-])ccc1F` then?
94 % of control

And for `O=S(=O)(/N=C1\C=CC(Br)=C\C1=N/S(=O)(=O)c1ccccc1)c1ccccc1` ?
101 % of control

Try the compound `COc1ccc(C[n+]2cc([O-])on2)cc1`
108 % of control

Now the compound `Cc1nc(N)nc(N)c1CCCOc1ccc(N)cc1`
100 % of control

Also need Cc1cc(NC(=O)CCc2ccc(N3C(N)=NC(N)=NC3(C)C)cc2)ccc1S(=O)(=O)F (tested in a mixture with another compound) , thanks.
92 % of control

Then this compound: `O=C(O)c1cccc2c1C(=O)c1ccccc1-2`
101 % of control

What would you report for `CCOC(=O)CCc1cc(C)[nH]c1C(=O)OCC` ?
101 % of control

* * *

Provide the reported T/C of each item.
System: L1210 leukemia ip in BDF1 mice, survival T/C
Protocol: NCI In Vivo Anticancer Drug Screen. Data for tumor model L1210 Leukemia (intraperitoneal) in B6D2F1 (BDF1) mice
Condition Label: endpoint: mean survival time; dose: 400.0 mg/kg/injection; schedule: Q04DX002 (ip); vehicle: Klucel (hydroxypropylcellulose) (HPC); higher = longer survival
Inconclusive results and toxic doses are left out.

Value lookup for T/C; key = `Nc1ccc(S(=O)(=O)CCCl)cc1`
100 % of control

Entry `Cc1ccc2c(Cl)ccc(Cl)c2n1` please
105 % of control

Try `CCN(CC)Cc1ccccc1COC(=O)c1ccc([N+](=O)[O-])cc1` next.
101 % of control

What about `CC(=O)Nc1ccc(NC(=O)Nc2ccc(F)cc2)cc1` ?
105 % of control

Also need `CC(C)=CCc1c(N)nc(N)[nH]c1=O` , thanks.
106 % of control

Same lookup for CCCS(=O)(=O)N1CC(C)OC(C)C1 (stereo unspecified) , please.
89 % of control

Query `COc1cccc(NC(=S)Nc2ccccc2)c1` next
111 % of control

Another molecule: `O=c1c2ccccc2[nH]c(=S)n1CCc1ccccn1`
89 % of control

Also, `C=CCc1ccc(OC(=O)Nc2ccc(Cl)cc2)c(OC)c1` please.
100 % of control

Moving on to `CCOC(=O)/C(O)=C\c1cc[n+]([O-])nc1Cl`
101 % of control

Do the same for `CCOC(=O)C(=O)N(CC)CC` please
88 % of control

What would you report for `CCCCCCCCCCCCCCCCCCNC(=O)N(C)Cc1ccccc1` ?
96 % of control

Next entry: `NNCc1cc(Cl)c2cccnc2c1O`
99 % of control

// next record `c1ccc(-c2nccnc2-c2ccccc2)cc1`
111 % of control

Lookup CC(C)CCCC(C)C1CCC2C3CC(O)C45CC4CCC5(C)C3CCC12C (stereo unspecified)
92 % of control

Now the same for O=C(O)C(Nc1ccc(Cc2ccc(NC(C(=O)O)c3ccccc3)cc2)cc1)c1ccccc1 (stereo unspecified)
92 % of control

Let us now turn to `CCCCNC(=O)C(=O)NCCCC`
103 % of control

What do you get for `COc1cc(C[C@H]2c3cc(OC)c(OC)cc3CCN2C)c(Oc2cc3c(cc2OC)-c2c(OC)c(OC)cc4c2[C@H](C3)N(C)CC4)cc1OC` ?
101 % of control

Next up: `ClC12c3ccccc3C(c3ccccc31)C1(Cl)c3ccccc3C2c2ccccc21`
106 % of control

`Cc1cccc(NC(=O)Nc2cccc(Cl)c2Cl)n1` ?
103 % of control

Try this molecule next: `Cc1cccc(NC(=O)NCCCl)c1`
102 % of control
